B1: CPXM2 (parent)
chain: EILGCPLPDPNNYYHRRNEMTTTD

Variants of: B1
ASSAY_NAME: protein stability index of a GFP-peptide fusion (GPS, HEK-293T) (PSI 1-6); higher = more stable;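 note: lentivirally expressed fusions sorted by FACS into six bins by GFP to DsRed ratio, PSI derived from sequencing read proportions per bin multiplied by bin number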
DETAILS: c terminus: a fixed tail appended
Label No if protein stability index falls below 3; label Yes in every other case.

The following variants have reported results that may help.
INSERT INTO measurements (mutant, discrete_label) VALUES
  ('R16S', 'Yes'),
  ('E1M', 'No'),
  ('T21G', 'Yes'),
  ('P8M', 'No'),
  ('E1W', 'No'),
  ('C5P', 'Yes'),
  ('T23Q', 'Yes'),
  ('N12R', 'Yes'),
  ('E1Y', 'No'),
  ('D9Q', 'Yes');

Does the reported protein stability index for L7C fall at or above the 3 mark?
Yes

Does the reported protein stability index for N11Q fall at or above the 3 mark?
Yes

Does the reported protein stability index for N11I fall at or above the 3 mark?
No

Does the reported protein stability index for C5K fall at or above the 3 mark?
Yes
